We begin with a simple list: items and their reported MCV.
Test: Hematology assays in cynomolgus monkeys (Example 46)
Assay type: in vivo
Conditions: Day 55
Procedure: Groups, each consisting of two male and two female monkeys, were injected subcutaneously with 25 mg/kg of ISIS 416850, ISIS 449709, ISIS 445522, ISIS 449710, ISIS 449707, ISIS 449711, ISIS 449708, 416858, and ISIS 445531. […] Body weights were taken 14 days and 7 days before the start of treatment and were then measured weekly throughout the treatment period. […]
Strand notation (5' to 3'): a small letter for the sugar, then the base; units joined by * are phosphorothioate-linked, units joined directly phosphodiester-linked; [ ] holds rarer units or linkages, { } end groups; capitals alone tell only the bases. e = 2'-O-(2-methoxyethyl) (MOE); [5mC] = 5-methylcytosine; d = 2'-deoxy (DNA)
Value expressed in fL; do not type the unit.

Reference set (5 entries):
substance="ISIS 445531: 5-8-5 or 6-8-6 MOE microwalk gapmer (Table 44) (antisense eG*eG*e[5mC]*eA*eT*dT*dG*dG*dT*dG*d[5mC]*dA*d[5mC]*eA*eG*eT*eT*eT)" unit_annotation=fL reported=74
substance="ISIS 449708: 3-8-3, 4-8-4, 2-10-2, 3-10-3 or 4-10-4 MOE microwalk gapmer (Table 46) (antisense eA*e[5mC]*eA*dG*dT*dT*dT*d[5mC]*dT*dG*dG*e[5mC]*eA*eG)" unit_annotation=fL reported=74
substance="ISIS 445522: 5-8-5 or 6-8-6 MOE microwalk gapmer (Table 44) (antisense eG*e[5mC]*eA*e[5mC]*eA*dG*dT*dT*dT*d[5mC]*dT*dG*dG*e[5mC]*eA*eG*eG*e[5mC])" unit_annotation=fL reported=72
substance="ISIS 449707: 3-8-3, 4-8-4, 2-10-2, 3-10-3 or 4-10-4 MOE microwalk gapmer (Table 46) (antisense e[5mC]*eA*e[5mC]*eA*dG*dT*dT*dT*d[5mC]*dT*dG*dG*e[5mC]*eA*eG*eG)" unit_annotation=fL reported=73
substance="ISIS 449711: 3-8-3, 4-8-4, 2-10-2, 3-10-3 or 4-10-4 MOE microwalk gapmer (Table 46) (antisense eA*e[5mC]*dA*dG*dT*dT*dT*d[5mC]*dT*dG*dG*d[5mC]*eA*eG)" unit_annotation=fL reported=73

Request: Item ISIS 416858: MOE gapmer, nucleobases 1275 to 1318 of SEQ ID NO: 1 (Table 8) (antisense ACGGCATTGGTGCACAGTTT; MOE gapmer, wing and gap sizes not given here) : provide MCV
Result: 75

Request: Item ISIS 416850: MOE gapmer, nucleobases 1275 to 1318 of SEQ ID NO: 1 (Table 8) (antisense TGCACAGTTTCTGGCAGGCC; MOE gapmer, wing and gap sizes not given here) : provide MCV
Result: 73

Request: Item ISIS 449710: 3-8-3, 4-8-4, 2-10-2, 3-10-3 or 4-10-4 MOE microwalk gapmer (Table 46) (antisense e[5mC]*eA*e[5mC]*dA*dG*dT*dT*dT*d[5mC]*dT*dG*dG*d[5mC]*eA*eG*eG) : provide MCV
Result: 73

Request: Item ISIS 449709: 3-8-3, 4-8-4, 2-10-2, 3-10-3 or 4-10-4 MOE microwalk gapmer (Table 46) (antisense eG*e[5mC]*eA*e[5mC]*dA*dG*dT*dT*dT*d[5mC]*dT*dG*dG*d[5mC]*eA*eG*eG*e[5mC]) : provide MCV
Result: 71
